Origin of the recorded values: ChEMBL document CHEMBL3621173

# testedSystem: Bromodomain-containing protein 4 (Homo sapiens, UniProt O60885)
# testDetails: Inhibition of BRD4 (D1) (unknown origin) at 5 uM incubated for 30 mins using histone H4 peptide (1-21) K5/8/12/16Ac-biotin by alpha screen assay
Active and inactive are the calls of the source. The rule behind the calls is not given here.
Give one outcome, nothing more. List: active, inactive

Answer briefly: the call reported for CC(=O)Nc1ccc(C)c(S(=O)(=O)NC2CCCC2)c1 in this assay.
inactive

Now try COc1ccc(-c2cn[nH]c2)cc1S(=O)(=O)NC1CCCC1 .
inactive

Now try Cc1ccc(NS(C)(=O)=O)cc1S(=O)(=O)NC1CCCC1 .
inactive

Now try Cc1ccc(-n2cnnc2C)cc1S(=O)(=O)NC1CCCC1 .
inactive

Now try COc1ccc(-c2c(C)nn(C)c2C)cc1S(=O)(=O)NC1CCCC1 .
inactive

Now try COc1ccc(-c2ccnn2C)cc1S(=O)(=O)NC1CCCC1 .
active

Now try COc1ccc(-c2ccc(NC(C)=O)cc2)cc1S(=O)(=O)NC1CCCC1 .
inactive

Now try COc1ccc(-c2cnn(C)n2)cc1S(=O)(=O)NC1CCCC1 .
active

Now try Cc1ccc(-n2c(C)nnc2C)cc1S(=O)(=O)NC1CCCC1 .
inactive

Now try CC(=O)NCc1ccc(C)c(S(=O)(=O)NC2CCCC2)c1 .
inactive

Now try COc1ccc(-c2cc[n+]([O-])cc2)cc1S(=O)(=O)NC1CCCC1 .
inactive

Now try COc1ccc(-c2cc(N)ccc2C)cc1S(=O)(=O)NC1CCCC1 .
inactive

Now try COc1ccc(-c2cccnc2)cc1S(=O)(=O)NC1CCCC1 .
inactive

Now try Cc1ccc(-c2nnn(C)n2)cc1S(=O)(=O)NC1CCCC1 .
inactive

Now try Cc1ccc(-c2c(C)noc2C)cc1S(=O)(=O)NC1CCCC1 .
active

Now try COc1ccc(-c2ccc(N)cc2C)cc1S(=O)(=O)NC1CCCC1 .
inactive

Now try COc1ccc(-c2ccncc2)cc1S(=O)(=O)NC1CCCC1 .
inactive

Now try COc1ccc(-c2c(C)n[nH]c2C)cc1S(=O)(=O)NC1CCCC1 .
active

Now try COc1ccc(-c2ccc(N)nc2C)cc1S(=O)(=O)NC1CCCC1 .
active

Now try COc1ccc(-c2ccc(N)nc2)cc1S(=O)(=O)NC1CCCC1 .
inactive

----------
# testDetails: Degradation half-life in mouse liver microsomes
# Assay type: ADME
Please provide measured half-life for the entries that follow.
Return type: number; implicit unit min.

Value lookup for half-life; key = Cc1ccc(-c2c(C)noc2C)cc1S(=O)(=O)NC1CCCC1
4

Now try Cc1ccc(-n2c(C)nnc2C)cc1S(=O)(=O)NC1CCCC1 .
85

Now try Cc1sc2c(c1C)C(c1ccc(Cl)cc1)=N[C@@H](CC(=O)OC(C)(C)C)c1nnc(C)n1-2 .
7

----------
# testedSystem: Bromodomain-containing protein 3 (Homo sapiens)
# Sequence (Q15059 2-726 limits assumed): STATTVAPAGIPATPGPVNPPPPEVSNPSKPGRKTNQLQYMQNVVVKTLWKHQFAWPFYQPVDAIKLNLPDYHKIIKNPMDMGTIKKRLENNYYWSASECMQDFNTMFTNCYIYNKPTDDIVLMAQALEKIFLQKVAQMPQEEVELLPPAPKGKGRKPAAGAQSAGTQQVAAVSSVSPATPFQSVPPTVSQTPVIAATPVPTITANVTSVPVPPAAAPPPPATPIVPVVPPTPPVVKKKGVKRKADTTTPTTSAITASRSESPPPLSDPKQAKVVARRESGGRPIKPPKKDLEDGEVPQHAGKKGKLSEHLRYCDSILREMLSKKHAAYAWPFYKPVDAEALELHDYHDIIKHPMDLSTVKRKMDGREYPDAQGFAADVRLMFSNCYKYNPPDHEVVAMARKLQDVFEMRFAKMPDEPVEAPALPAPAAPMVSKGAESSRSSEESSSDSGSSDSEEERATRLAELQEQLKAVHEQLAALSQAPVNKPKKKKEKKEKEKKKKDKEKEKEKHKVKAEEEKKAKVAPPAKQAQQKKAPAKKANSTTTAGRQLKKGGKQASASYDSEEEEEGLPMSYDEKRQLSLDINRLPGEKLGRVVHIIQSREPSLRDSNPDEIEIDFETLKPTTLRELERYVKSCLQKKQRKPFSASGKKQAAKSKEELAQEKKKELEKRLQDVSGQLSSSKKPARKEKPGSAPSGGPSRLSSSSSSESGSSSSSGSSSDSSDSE
# testDetails: Inhibition of BRD3 (D1) (unknown origin) at 5 uM incubated for 30 mins using histone H4 peptide (1-21) K5/8/12/16Ac-biotin by alpha screen assay
Activity calls are given as the source filed them. The calls are words filed in the database; no cut-off is given here.
Give one outcome, nothing more. List: t for active, f for inactive

Answer briefly: the call reported for COc1ccc(-c2ccc(N)nc2C)cc1S(=O)(=O)NC1CCCC1 in this assay.
t

Now try Cc1ccc(NS(C)(=O)=O)cc1S(=O)(=O)NC1CCCC1 .
f

Now try COc1ccc(-c2cccc(N)c2C)cc1S(=O)(=O)NC1CCCC1 .
f

Now try COc1ccc(-c2ccccc2NS(C)(=O)=O)cc1S(=O)(=O)NC1CCCC1 .
f

Now try COc1ccc(-c2ccnn2C)cc1S(=O)(=O)NC1CCCC1 .
t

Now try COc1ccc(-c2cnc(N)nc2)cc1S(=O)(=O)NC1CCCC1 .
f

Now try COc1ccc(-c2cc(N)ccc2C)cc1S(=O)(=O)NC1CCCC1 .
f

----------
# testDetails: Intrinsic clearance in rat liver microsomes
# Assay type: ADME
# measurementSetup: read-out: CLH
readout: microsomal CLint (µL/min/mg)
Return type: number; implicit unit µL/min/mg.

Value lookup for microsomal CLint; key = Cc1ccc(-c2c(C)noc2C)cc1S(=O)(=O)NC1CCCC1
711

Now try Cc1ccc(-n2c(C)nnc2C)cc1S(=O)(=O)NC1CCCC1 .
16

Now try COc1cc2c(cc1-c1c(C)noc1C)ncc1[nH]c(=O)n([C@H](C)c3ccccn3)c12 .
8

Now try Cc1sc2c(c1C)C(c1ccc(Cl)cc1)=N[C@@H](CC(=O)OC(C)(C)C)c1nnc(C)n1-2 .
129

----------
# testedSystem: Bromodomain-containing protein 4 (Homo sapiens)
# testDetails: Inhibition of BRD4 (D1) (unknown origin) at 5 uM incubated for 30 mins using histone H4 peptide (1-21) K5/8/12/16Ac-biotin by alpha screen assay
Active and inactive are the calls of the source. No cut-off for these calls is given here.
Give one outcome, nothing more. List: label 1 = active, label 0 = inactive

Answer briefly: the call reported for Cc1ccc(-c2nnnn2C)cc1S(=O)(=O)NC1CCCC1 in this assay.
label 0

Now try COc1ccc(-c2ccsc2)cc1S(=O)(=O)NC1CCCC1 .
label 0

Now try COc1ccc(-c2ccsc2C)cc1S(=O)(=O)NC1CCCC1 .
label 0

Now try Cc1nc(-c2ccc(C)c(S(=O)(=O)NC3CCCC3)c2)no1 .
label 0

Now try COc1ccc(-c2cccc(NC(C)=O)c2)cc1S(=O)(=O)NC1CCCC1 .
label 0

Now try COc1ccc(-c2cccc(N)c2C)cc1S(=O)(=O)NC1CCCC1 .
label 0

Now try COc1ccc(-c2cnc(N)nc2)cc1S(=O)(=O)NC1CCCC1 .
label 0

Now try COc1ccc(-c2c(C)noc2C)cc1S(=O)(=O)NC1CCCC1 .
label 1

Now try COc1ccc(-c2cn(C)nn2)cc1S(=O)(=O)NC1CCCC1 .
label 0

Now try COc1ccc(-c2ccccc2NS(C)(=O)=O)cc1S(=O)(=O)NC1CCCC1 .
label 0

Now try COc1ccc(-c2ccc(N)[n+]([O-])c2C)cc1S(=O)(=O)NC1CCCC1 .
label 1

----------
# testedSystem: Bromodomain-containing protein 2 (Homo sapiens) (UniProt P25440)
# Sequence (P25440 whole entry, looked up): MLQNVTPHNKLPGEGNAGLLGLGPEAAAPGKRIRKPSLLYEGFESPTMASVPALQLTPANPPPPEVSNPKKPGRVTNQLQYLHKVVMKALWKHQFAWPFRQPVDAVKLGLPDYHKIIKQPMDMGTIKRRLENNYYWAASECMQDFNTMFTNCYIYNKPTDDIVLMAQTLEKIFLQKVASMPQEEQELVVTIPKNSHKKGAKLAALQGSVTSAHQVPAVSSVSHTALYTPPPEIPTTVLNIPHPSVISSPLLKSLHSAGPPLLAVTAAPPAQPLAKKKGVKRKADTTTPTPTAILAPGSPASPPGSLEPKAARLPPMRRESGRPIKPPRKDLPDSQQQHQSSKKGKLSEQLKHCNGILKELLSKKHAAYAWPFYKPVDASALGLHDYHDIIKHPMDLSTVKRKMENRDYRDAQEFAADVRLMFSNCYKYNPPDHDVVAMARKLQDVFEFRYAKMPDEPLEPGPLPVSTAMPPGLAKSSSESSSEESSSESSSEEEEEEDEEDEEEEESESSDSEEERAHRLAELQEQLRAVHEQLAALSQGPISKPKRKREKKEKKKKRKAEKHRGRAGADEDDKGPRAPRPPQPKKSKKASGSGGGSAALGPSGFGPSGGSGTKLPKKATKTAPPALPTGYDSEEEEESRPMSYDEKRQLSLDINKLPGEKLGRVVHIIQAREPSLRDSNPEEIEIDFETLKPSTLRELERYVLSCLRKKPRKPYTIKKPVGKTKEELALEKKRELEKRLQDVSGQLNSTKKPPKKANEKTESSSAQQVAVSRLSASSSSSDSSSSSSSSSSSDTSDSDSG
# testDetails: Inhibition of BRD2 (D1) (unknown origin) at 5 uM incubated for 30 mins using histone H4 peptide (1-21) K5/8/12/16Ac-biotin by alpha screen assay
Calls of active or inactive are those of the source. The rule behind the calls is not given here.
Give one outcome, nothing more. List: active, inactive

Answer briefly: the call reported for COc1ccc(-c2cnc(N)nc2)cc1S(=O)(=O)NC1CCCC1 in this assay.
inactive

Now try COc1ccc(-c2c(C)n[nH]c2C)cc1S(=O)(=O)NC1CCCC1 .
active

Now try COc1ccc(-c2ccc(N)nc2)cc1S(=O)(=O)NC1CCCC1 .
inactive

Now try Cc1ccc(-n2c(C)nnc2C)cc1S(=O)(=O)NC1CCCC1 .
inactive

Now try Cc1ccc(-c2c(C)noc2C)cc1S(=O)(=O)NC1CCCC1 .
active

Now try COc1ccc(-c2ccc(NC(C)=O)cc2)cc1S(=O)(=O)NC1CCCC1 .
inactive

Now try COc1ccc(-c2cccc(N)c2C)cc1S(=O)(=O)NC1CCCC1 .
inactive

Now try Cc1ccc(-c2nnn(C)n2)cc1S(=O)(=O)NC1CCCC1 .
inactive

Now try COc1ccc(-c2cc(N)ccc2C)cc1S(=O)(=O)NC1CCCC1 .
inactive

Now try COc1ccc(-c2ccc(N)nc2C)cc1S(=O)(=O)NC1CCCC1 .
active

Now try Cc1ccc(NS(C)(=O)=O)cc1S(=O)(=O)NC1CCCC1 .
inactive

Now try Cc1ccc(-n2cnnc2C)cc1S(=O)(=O)NC1CCCC1 .
inactive

Now try COc1ccc(-c2ccsc2C)cc1S(=O)(=O)NC1CCCC1 .
inactive

Now try COc1ccc(-c2ccccc2NS(C)(=O)=O)cc1S(=O)(=O)NC1CCCC1 .
inactive

Now try Cc1ccc(-c2nnnn2C)cc1S(=O)(=O)NC1CCCC1 .
inactive

Now try COc1ccc(-c2ccc(N)cc2C)cc1S(=O)(=O)NC1CCCC1 .
inactive

Now try CC(=O)NCc1ccc(C)c(S(=O)(=O)NC2CCCC2)c1 .
inactive

Now try COc1ccc(-c2c(C)noc2C)cc1S(=O)(=O)NC1CCCC1 .
active

----------
# testedSystem: Bromodomain-containing protein 4 (Homo sapiens)
# testDetails: Inhibition of BRD4 (D1) (unknown origin) incubated for 30 mins using histone H4 peptide (1-21) K5/8/12/16Ac-biotin by alpha screen assay
Please provide measured IC50 for the entries that follow.
Return type: number; implicit unit µM.

Value lookup for IC50; key = COc1ccc(-c2c(C)n[nH]c2C)cc1S(=O)(=O)NC1CCCC1
2.89

Now try COc1ccc(-c2ccnn2C)cc1S(=O)(=O)NC1CCCC1 .
10.1

Now try COc1ccc(-c2c(C)noc2C)cc1S(=O)(=O)NC1CCCC1 .
1.2

Now try COc1ccc(-c2cnn(C)n2)cc1S(=O)(=O)NC1CCCC1 .
4
